- Procedure text: Antiplatelet activity in human platelet-rich plasma assessed as inhibition of U46619-induced platelet aggregation treated for 5 mins prior to U46619 challenge for 5 mins by turbidimetric method
- Assay type: functional, cell-free
Recorded metric: inhibition (INH) (%)

Smiles string	Result unit	Reported
Cc1ccc(CN2C(=O)SC[C@H]2C(=O)N2CCC[C@@H](CNC(=O)OC(C)(C)C)C2)cc1	%	75
Cc1ccc(CN2CSC[C@H]2C(=O)N2CCC[C@H](CNC(=O)OC(C)(C)C)C2)cc1	%	100
Cc1ccc(CN2C(=O)SC[C@H]2C(=O)N2CCC[C@H](CNC(=O)OC(C)(C)C)C2)cc1	%	64
Cc1ccc(CN2CSC[C@H]2C(=O)N2CCC[C@@H](CNC(=O)OC(C)(C)C)C2)cc1	%	96
